# Study Target: UniProt Q12809
# Sequence (Q12809 whole entry): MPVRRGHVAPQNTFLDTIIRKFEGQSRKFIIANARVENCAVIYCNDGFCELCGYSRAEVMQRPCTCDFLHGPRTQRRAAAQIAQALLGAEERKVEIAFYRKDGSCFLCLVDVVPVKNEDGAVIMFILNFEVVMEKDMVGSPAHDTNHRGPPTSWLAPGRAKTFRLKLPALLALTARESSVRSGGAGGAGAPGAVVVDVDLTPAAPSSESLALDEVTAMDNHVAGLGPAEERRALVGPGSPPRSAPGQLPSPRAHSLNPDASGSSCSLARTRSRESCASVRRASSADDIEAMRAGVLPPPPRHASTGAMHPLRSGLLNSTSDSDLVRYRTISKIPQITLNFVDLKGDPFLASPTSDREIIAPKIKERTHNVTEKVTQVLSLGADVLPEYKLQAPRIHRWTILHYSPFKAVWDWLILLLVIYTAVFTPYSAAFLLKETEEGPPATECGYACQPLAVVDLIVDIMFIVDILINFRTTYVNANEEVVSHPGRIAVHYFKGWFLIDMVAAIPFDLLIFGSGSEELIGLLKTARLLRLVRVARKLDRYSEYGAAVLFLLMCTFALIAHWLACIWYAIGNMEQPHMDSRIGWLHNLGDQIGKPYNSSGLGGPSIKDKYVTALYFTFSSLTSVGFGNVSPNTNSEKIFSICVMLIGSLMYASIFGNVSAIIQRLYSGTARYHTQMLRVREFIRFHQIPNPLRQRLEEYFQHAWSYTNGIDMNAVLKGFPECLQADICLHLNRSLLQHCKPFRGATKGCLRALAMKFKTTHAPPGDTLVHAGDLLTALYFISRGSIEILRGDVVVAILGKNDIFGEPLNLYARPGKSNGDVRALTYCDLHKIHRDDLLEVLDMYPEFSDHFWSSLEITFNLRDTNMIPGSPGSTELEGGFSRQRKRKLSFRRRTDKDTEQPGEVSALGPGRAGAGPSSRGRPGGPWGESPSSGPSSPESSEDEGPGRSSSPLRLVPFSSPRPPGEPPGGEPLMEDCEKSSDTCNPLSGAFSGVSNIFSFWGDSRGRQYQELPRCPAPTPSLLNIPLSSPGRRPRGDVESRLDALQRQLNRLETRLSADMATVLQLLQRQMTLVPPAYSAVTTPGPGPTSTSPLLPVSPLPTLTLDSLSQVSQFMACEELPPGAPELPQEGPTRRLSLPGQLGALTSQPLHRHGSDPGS
# Procedure Details: in vitro
Assay Endpoint: inhibition at 10 µM
Remember to quote the unit after the number.

Please give the measured inhibition at 10 µM for this compound: Nc1nnc2c(n1)-c1cccc3cccc-2c13
22%

----------
# System: Sodium Channel, Site 2
# Type: binding, Wistar Rat
# Experimental Setup: 10 μM
Listing of entries alongside the reported [3H]BTX-B binding % inhibition (@ 10 μM).
Quick note: give the figure in %, leave out the unit.

{"Structure Notation": "Nc1nnc(-c2cc(F)c(F)cc2Cl)c(N)n1", "[3H]BTX-B binding % inhibition (@ 10 μM) / %": 30}
{"Structure Notation": "Nc1nnc(C(c2ccc(Cl)cc2)c2ccc(Cl)cc2)c(N)n1", "[3H]BTX-B binding % inhibition (@ 10 μM) / %": "−2"}
{"Structure Notation": "Cc1ccc(S(=O)(=O)O)cc1.Nc1nnc(-c2c(F)c(F)c(F)c(F)c2F)c(N)n1", "[3H]BTX-B binding % inhibition (@ 10 μM) / %": 0}

Could you now consider this next compound?
Please give the measured [3H]BTX-B binding % inhibition (@ 10 μM) for this compound: Nc1nnc(-c2cc(Cl)ccc2C(F)(F)F)c(N)n1
14

----------
Listing of entries alongside the reported melting point.

// solved cases for melting point follow
{"Molecule": "Nc1nnc(-c2ccccc2OC(F)(F)C(F)F)c(N)n1 [CEN-137]", "Result": "158 to 160 °C"}
{"Molecule": "Nc1nnc(C2c3ccccc3Oc3ccccc32)c(N)n1 [CEN-182, 3,5-Diamino-6-(9-xanthyl)-1,2,4-triazine]", "Result": "159 to 161 °C"}
{"Molecule": "Nc1ncc(-c2cccc(Cl)c2Cl)c(N)n1 [CEN-41]", "Result": "289 to 291 °C"}
{"Molecule": "Nc1nnc(-c2cccc3ccccc23)c(N)n1 [CEN-72]", "Result": "194 to 196 °C"}

Please give the measured melting point for this molecule: Nc1nnc(-c2cccc(OCc3c(Cl)cccc3Cl)c2)c(N)n1 [CEN-185]
190 to 192 °C

----------
Structures can show the parent of a compound that is named as a salt.
Assay Endpoint: melting point

// solved cases for melting point follow
{"Compound": "CCn1nc(-c2cccc3ccccc23)c(N)nc1=N [CEN-77]", "melting point": "191 to 193 °C"}
{"Compound": "CCOc1cc2ccccc2cc1-c1nnc(N)nc1N [CEN-141]", "melting point": "212 to 214 °C"}
{"Compound": "Cn1nc(-c2cc(C(F)(F)F)cc(Cl)c2F)c(N)nc1=N (as salt: mesylate) [CEN-202]", "melting point": "277 to 279 °C"}
{"Compound": "Nc1nnc(C2(c3ccc(Cl)cc3)CC2)c(N)n1 [CEN-154]", "melting point": "157 to 159 °C"}
{"Compound": "Cn1nc(C(C)(c2ccccc2)c2ccccc2)c(N)nc1=N (as salt: methanesulfonate) [CEN-149]", "melting point": "240 to 242 °C"}

Please give the measured melting point for this compound: CCCCc1ccc(-c2nnc(N)nc2N)cc1 [CEN-183]
184 to 186 °C

Please give the measured melting point for this compound: Nc1nnc(-c2ccc3ccccc3c2)c(N)n1 [CEN-73]
215 to 216 °C

Please give the measured melting point for this compound: Nc1nnc(-c2ccccc2OC(F)(F)F)c(N)n1 [CEN-56]
148 to 150 °C

Please give the measured melting point for this compound: CCOc1ccc2ccccc2c1-c1nnc(N)nc1N [CEN-110]
178 to 180 °C

Please give the measured melting point for this compound: Nc1nnc(-c2cc(C(F)(F)F)ccc2Cl)c(N)n1 [CEN-169]
238 to 239 °C

Please give the measured melting point for this compound: Nc1nnc(-c2ccc3c(c2)OCCO3)c(N)n1 [CEN-109]
220 to 222 °C
